Target: FLuc-C-NLuc (firefly luciferase) (Photinus pyralis, UniProt P08659, form not given/L550V)
Sequence (P08659 2-550 L550V, form open): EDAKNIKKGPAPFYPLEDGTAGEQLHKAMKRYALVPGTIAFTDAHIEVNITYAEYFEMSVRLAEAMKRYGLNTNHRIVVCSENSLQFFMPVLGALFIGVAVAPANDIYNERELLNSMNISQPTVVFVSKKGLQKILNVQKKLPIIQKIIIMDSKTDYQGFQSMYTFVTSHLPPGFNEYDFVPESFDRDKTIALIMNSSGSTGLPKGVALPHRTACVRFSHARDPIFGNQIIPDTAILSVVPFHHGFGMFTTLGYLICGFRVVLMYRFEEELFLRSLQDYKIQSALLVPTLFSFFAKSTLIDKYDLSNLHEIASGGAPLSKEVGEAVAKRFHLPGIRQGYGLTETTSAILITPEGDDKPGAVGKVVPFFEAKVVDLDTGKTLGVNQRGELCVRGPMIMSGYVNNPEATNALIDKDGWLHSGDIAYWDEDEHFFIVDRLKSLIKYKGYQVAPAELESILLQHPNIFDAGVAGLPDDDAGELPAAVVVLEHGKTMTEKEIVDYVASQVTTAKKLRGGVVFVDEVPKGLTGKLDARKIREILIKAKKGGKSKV
Experiment: SDR assay, FLuc-C-NLuc
Conditions: 1 nM FLuc-C-NLuc; normalized activity; Log [Compound], M -8.30
assay-metric: SDR + 10 mM ATP
# answer = number (no unit)

| compound | SDR + 10 mM ATP |
| --- | --- |
| O=C(O)CCSc1nnc(-c2ccc(Cl)cc2Cl)o1 | 12.4 |
| Fc1ccc(-c2cn3cc(Cc4ccccc4)sc3n2)cc1 | 8.2 |
| CC1CCCN(c2ncnc3c2cnn3-c2ccccc2)C1 (centres unmarked) | 3.1 |
| COc1ccc(-c2nc(-c3ccc(C(=O)O)cc3)no2)cc1 | 40.1 |
| CC(CNC(=O)C1CCN(C(=O)c2ncn3c2COC(c2ccccc2)C3)CC1)c1ccccc1 (centres unmarked) | -0.9 |

Record CNC(=O)c1cccc2c1CCN2C(=O)Nc1ccc(C)cc1 ; system FLuc-C-NLuc (firefly luciferase) (Photinus pyralis, UniProt P08659, form not given/L550V); SDR + 10 mM ATP = 0.363

Field SDR + 10 mM ATP (system: FLuc-C-NLuc (firefly luciferase) (Photinus pyralis, UniProt P08659, form not given/L550V)) for entry O=C(O)c1cccc2c1CCN2C(=O)Nc1ccc(F)cc1 = 65.7

SDR + 10 mM ATP value, target or system FLuc-C-NLuc (firefly luciferase) (Photinus pyralis, UniProt P08659, form not given/L550V), for Cc1ccc(-n2ncc3c(N4CCCCCC4)ncnc32)cc1 : 2.5
